The next entries give measured GI50 for CCRF-CEM leukemia.

Observe how each entry below is paired with its result.
{"Test Smiles": "O=C1OC(c2cccc(C(F)(F)F)c2)(c2cccc(C(F)(F)F)c2)c2ccc3ccccc3c21", "GI50": "9.13 µM"}
{"Test Smiles": "COc1cc(C(=O)/C=C/c2c(C)n([O-])c3ccc(C(F)(F)F)cc3[n+]2=O)cc(OC)c1OC", "GI50": "0.564 µM"}
{"Test Smiles": "CCCOC(=O)c1ccc2c(c1)[N+](=O)C(C(=O)c1ccccc1)=C(C(F)(F)F)[N+]2=O", "GI50": "1.85 µM"}
{"Test Smiles": "Clc1ccc(-c2ccc(CNCC3CCNCC3)o2)c(-c2ccccc2)c1", "GI50": "0.557 µM"}
{"Test Smiles": "C=CC(=O)N1CC2(CCC(n3nc(-c4ccc(Oc5ccccc5)cc4)c4c(N)ncnc43)CC2)C1", "GI50": "3.65 µM"}
{"Test Smiles": "CCCCCCC[CH2][Sn]([Cl])([Cl])[CH2]CCCCCCC", "GI50": "3.27 µM"}

Would you kindly look at the next entry?
[ask] Would you kindly share the measured GI50 for O=C(Nc1ccc(OCc2nnc(-c3ccc(Cl)cc3)o2)c(F)c1)Nc1ccc(Cl)c(Cl)c1 ?
[reply] 7.09 µM

* * *

# Tested on: PC-3 prostate
# Experimental Details: NCI tumour cell line growth inhibition, 48 h
Measured TGI, listed per entry.

{"Molecule": "CC(=O)c1c(SCCN2CCCCCC2)n(-c2ccccc2)c(=S)n(-c2ccccc2)c1=O", "TGI": "14.2 µM"}
{"Molecule": "O=C(OC1C=C=CS(=O)(=O)CC#C/C=C\\1)c1cnc2ccccc2n1 (stereo unspecified)", "TGI": "> 100 µM"}
{"Molecule": "C/C(O)=c1\\cc(C#N)c(=C(C#N)C#N)nc1C", "TGI": "> 100 µM"}
{"Molecule": "CC(C)OC(=O)Nc1ccc(-c2nc(-c3cccc(OCCN4CCOCC4)c3)c(-c3ccnc(Br)c3)[nH]2)cc1", "TGI": "> 100 µM"}
{"Molecule": "Clc1ccc(-c2noc(CN3CCCCC3)n2)cc1", "TGI": "> 100 µM"}

[ask] Would you kindly share the measured TGI for COc1ccc(CN=C2N/C(=C\c3ccccc3Cl)C(=O)N2C)cc1 ?
[reply] 96.6 µM

[ask] For COc1cc2c3c(c1O)N=NC=3CCN=2 then?
[reply] 84.8 µM

[ask] For CC(=O)OC1(C)C(=O)OC/C2=C/CN(C)CCC(OC(=O)C(O)(C(C)Cl)CC1C)C2=O (stereo unspecified) then?
[reply] > 100 µM

[ask] For COc1ccc(/C=C/C(=O)c2ccc(NC(=O)CSc3nnc(-c4ccc(OC)c(OC)c4)n3-c3ccccc3)cc2)cc1 then?
[reply] 13.8 µM

* * *

# Test system: LOX IMVI melanoma
Respond with a class label; see active, inactive

{"Molecule": "Cc1cc2nc3c4cc(C=O)ccc4n(CCN(C)C)c3nc2cc1C", "Discrete Label": "inactive"}
{"Molecule": "Cc1ccc(-c2c3c(nn2-c2ccc(S(=O)(=O)NC(=O)Nc4ccccc4)cc2)-c2ccccc2C3)cc1", "Discrete Label": "inactive"}
{"Molecule": "CC/C(=C(\\c1ccc(Cl)cc1)c1ccc(OCCN2CCCCC2)cc1)c1ccc(O)cc1", "Discrete Label": "inactive"}
{"Molecule": "COC(=O)C(=Cc1ccccc1[N+](=O)[O-])C(=O)OC", "Discrete Label": "inactive"}

[ask] I would be grateful if you could indicate the recorded call for CCSc1nc2[nH]c(=S)[nH]c(=S)c2c(-c2ccc(OC)c(OC)c2)c1C#N .
[reply] inactive

[ask] For Clc1ccc(-c2ccc(CNCC3CCNCC3)o2)c(-c2ccccc2)c1 then?
[reply] inactive

* * *

# Test system: A549 NSCLC
# Experimental Details: NCI tumour cell line growth inhibition, 48 h
Measured Attribute: TGI

Observe how each entry below is paired with its result.
{"Compound": "O=C(C=P(c1ccccc1)(c1ccccc1)c1ccccc1)CC(=S)CC(=O)C=P(c1ccccc1)(c1ccccc1)c1ccccc1", "TGI": "> 100 µM"}
{"Compound": "O=C(O)c1ccc(C=C2Sc3ccccc3S2)cc1", "TGI": "> 100 µM"}
{"Compound": "C/C(O)=c1\\cc(C#N)c(=C(C#N)C#N)nc1C", "TGI": "> 100 µM"}
{"Compound": "COC(=O)c1c(O)ccc2c1c1c(n2CCc2ccccc2)C(=O)c2ccccc2C1=O", "TGI": "22.6 µM"}
{"Compound": "O=C1C[C@@H](c2ccc(O)cc2)[C@@]2(O1)C(=O)O[C@H]([C@@H](O)CO)[C@@H]2O", "TGI": "> 100 µM"}
{"Compound": "C=CCSSC1N=CNc2nc[nH]c21 (stereo not given)", "TGI": "> 100 µM"}
{"Compound": "CCCCCC(=O)n1[nH]c(=O)n(-c2ccc(OC)cc2)c1=O", "TGI": "> 100 µM"}
{"Compound": "CN(C)CCCNc1c2c(nc3ccc(Cl)cc13)CCCC2", "TGI": "39.6 µM"}

[ask] Would you kindly share the measured TGI for COc1cc(C(=O)/C=C/c2c(C)n([O-])c3ccc(C(F)(F)F)cc3[n+]2=O)cc(OC)c1OC ?
[reply] > 93.3 µM

[ask] For COC(=O)/C=C1/SC(=Nc2ccc(C(F)(F)F)cc2)N(CCc2c[nH]c3ccc(O)cc23)C1=O then?
[reply] > 100 µM

* * *

# Tested on: OVCAR-5 ovarian
Respond with a class label; see 1 for active, 0 for inactive

Known results for compounds:
{"Compound": "O=C1C=C(Nc2ccc([N+](=O)[O-])cc2)c2ccccc2C1=O", "Discrete Label": 0}
{"Compound": "c1ccc(N2CCN(CN3CCN(c4ccccc4)C3)C2)cc1", "Discrete Label": 0}
{"Compound": "COC(=O)c1ccc2[nH]c(O)c(C(=Nc3ccc(N(C)C(=O)CN4CCN(C)CC4)cc3)c3ccc(OC)cc3)c2c1", "Discrete Label": 0}
{"Compound": "C=C1C(=O)c2sccc2C(c2ccc(OC)c(OC)c2)C1COC(C)=O (stereo not given)", "Discrete Label": 0}
{"Compound": "Cc1ccc2cc3c(N)c4c(C)ccc(C)c4nc3nc2c1", "Discrete Label": 0}

[ask] I would be grateful if you could indicate the recorded call for COc1cccc2c(Nc3ccc(C(=O)O)cc3)cc(-c3ccccc3)nc12 .
[reply] 0

[ask] For CC(C)OC(=O)Nc1ccc(-c2nc(-c3cccc(OCCN4CCOCC4)c3)c(-c3ccnc(Br)c3)[nH]2)cc1 then?
[reply] 0

[ask] For COC(=O)C(=Cc1ccccc1[N+](=O)[O-])C(=O)OC then?
[reply] 0

[ask] For CCC[CH2][Sn]1([CH2]CCC)[O]CC(c2ccccn2)C[O]1 then?
[reply] 0

[ask] For COc1ccc2c(c1)SC1=NNC(Cl)C(=O)N12 (stereo not given) then?
[reply] 0

[ask] For CC(=O)Nc1cccc(C#Cc2cncnc2Nc2ccc(OCc3cccc(F)c3)c(Cl)c2)n1 then?
[reply] 0

[ask] For CC#CC#Cc1cccc(=O)o1 then?
[reply] 0

[ask] For COc1ccc(C(O)c2cc3c(N)c(C(=O)Nc4ccc(Br)cc4)sc3nc2C)cc1 (stereo not given) then?
[reply] 0

[ask] For CCOC(=O)c1ccc2c(c1)c1c(C)c3cnccc3c(C)c1n2C then?
[reply] 1

[ask] For C[C@]12CC[C@@H]3c4ccc(O)cc4CC[C@H]3[C@@H]1CC[C@@H]2NS(=O)(=O)c1cccc(OC(F)(F)F)c1 then?
[reply] 0

* * *

# Test system: RXF 393 renal
# Experimental Details: NCI tumour cell line growth inhibition, 48 h
Measured Attribute: TGI

Observe how each entry below is paired with its result.
{"Compound": "O=C1C=C(Nc2ccc([N+](=O)[O-])cc2)c2ccccc2C1=O", "TGI": "22.5 µM"}
{"Compound": "COc1ccc(C2c3c(n(C)c(=O)n(C)c3=O)OC(N(C)C)(N(C)C)C2(F)F)cc1 (centres undefined)", "TGI": "> 100 µM"}
{"Compound": "O=c1[nH]cnc2[nH]cc(CN3CCCCC3)c12", "TGI": "> 100 µM"}

[ask] Would you kindly share the measured TGI for COC(=O)C1=C(OC(=O)/C(=C/c2ccccc2)c2ccccc2)C(C(=O)OC)[C@@]2(O)[C@@H](C(=O)OC)[C@H](C)C[C@@H]1[C@@H]2C(=O)OC (some centres undefined) ?
[reply] > 100 µM

* * *

Measured TGI, listed per entry.
# Test system: NCI/ADR-RES ovarian
# Experimental Details: NCI tumour cell line growth inhibition, 48 h

{"Molecule": "COC(=O)Cc1c([C@H]2[C@H](CC(=O)OC)c3ccccc3N2C(=O)C(F)(F)F)[nH]c2ccccc12", "TGI": "91.3 µM"}
{"Molecule": "COc1ccc(/C=C/C(=O)c2ccc(NC(=O)CSc3nnc(-c4ccc(OC)c(OC)c4)n3-c3ccccc3)cc2)cc1", "TGI": "> 100 µM"}
{"Molecule": "COc1ccc(-c2c3ccccc3c(-c3ccc(OCCBr)cc3)c3ccccc23)cc1", "TGI": "> 100 µM"}
{"Molecule": "CC(C)OC(=O)Nc1ccc(-c2nc(-c3cccc(OCCN4CCOCC4)c3)c(-c3ccnc(Br)c3)[nH]2)cc1", "TGI": "> 100 µM"}
{"Molecule": "O=C(c1ccccc1)c1ccc2nc(-c3c(Cl)c(Cl)c(Cl)c(Cl)c3C(=O)N/N=C\\C=C\\c3ccccc3)[nH]c2c1", "TGI": "> 100 µM"}
{"Molecule": "COC(=O)c1ccc2[nH]c(O)c(C(=Nc3ccc(N(C)C(=O)CN4CCN(C)CC4)cc3)c3ccc(OC)cc3)c2c1", "TGI": "37.2 µM"}
{"Molecule": "Cc1nc2nn[nH]n2c(=O)c1CCO", "TGI": "> 100 µM"}
{"Molecule": "CC(=O)NCCC1CN(C(=O)/C=C\\I)c2ccccc21 (stereo unspecified)", "TGI": "> 61.7 µM"}

[ask] Would you kindly share the measured TGI for CC(=O)Nc1cccc(C#Cc2cncnc2Nc2ccc(OCc3cccc(F)c3)c(Cl)c2)n1 ?
[reply] > 25 µM

[ask] For O=C1OC(c2ccc(O)c(F)c2)(c2ccc(O)c(F)c2)c2cccc3cccc1c23 then?
[reply] > 25 µM

[ask] For O=C(NNc1cn[nH]c(=O)n1)c1cccc2nc3ccccc3nc12 then?
[reply] > 100 µM

Reference for the values: PubChem BioAssay (NCI)
